Measured target: UniProt:O14744
Assay notes: Revised PRMT5 Biochemical Assay
Test settings: 1 μM histone H4 derived peptide substrate, 1 μM S-Adenosyl methionine, 4 hours at 37 degree Celsius, Transcreener EPIGEN fluorescence polarisation
Measurement label: IC50 (nM)

Worked cases, answers included:
COC1CCN(C(=O)c2ccc(C(=O)NC[C@@H](O)CNC3Cc4ccccc4C3)cc2)CC1 [Compound 86]	682
O=C(NCC(O)CNC1Cc2ccccc2C1)c1ccc2c(c1)CN(C(=O)CC1CC1)C2 (racemic) [Compound 92]	1380
COC1CCN(C(=O)c2ccc(C(=O)NC[C@@H](O)CNC3Cc4ccccc4C3)cc2)C1 (some centres unmarked) [Compound 81]	1370
CC(=O)N1CCC(Nc2nccc(C(=O)NCC(O)CNC3Cc4ccccc4C3)n2)CC1 (centres unmarked) [Compound 54]	5770
CCOc1cc(C(=O)N2CCOC[C@H]2C)ccc1C(=O)NC[C@@H](O)CNC1Cc2ccccc2C1 [Compound 123]	40
O=C(NCC(O)CNC1Cc2ccccc2C1)c1ccccc1OCC(F)(F)F (racemic) [Compound 97]	4320

A = Cn1ccc(C(=O)NCC(O)CNC2Cc3ccccc3C2)cc1=O (racemic) [Compound 85]
B = COCC1CCCCN1C(=O)c1ccc(C(=O)NC[C@@H](O)CNC2Cc3ccccc3C2)cc1 (some centres unmarked) [Compound 80]
Query block: Pick one: A or B . Which one has the lower reported IC50? Bench note: the answer is the label of the chosen record.
Result block: B

P = O=C(NCC(CO)CNC1Cc2ccccc2C1)c1ccc(C(=O)N2CCOCC2)cc1 (centres unmarked) [Compound 108]
Q = CN(C[C@H](O)CNC(=O)c1ccc(C(=O)N2CCOCC2)cc1)C1Cc2ccccc2C1 [Compound 112]
R = O=C(NCC(O)CNC1Cc2ccccc2C1)c1ccnc(N2CCCC2)c1 (centres unmarked) [Compound 48]
S = CCOc1cc(C(=O)N2CCOC[C@@H]2CC)ccc1C(=O)NC[C@@H](O)CNC1Cc2ccccc2C1 [Compound 124]
T = COC(=O)Cc1ccc(C(=O)NC[C@@H](O)CNC2Cc3ccccc3C2)cc1 [Compound 89]
Query block: Sort low-to-high on IC50, please. Put the labels in the order asked and list them.
Result block: S, T, R, Q, P

---

Measured target: Full-length PRMT5 enzyme co-expressed with MEP50 (Homo sapiens (Human))
Sequence (O14744 whole entry): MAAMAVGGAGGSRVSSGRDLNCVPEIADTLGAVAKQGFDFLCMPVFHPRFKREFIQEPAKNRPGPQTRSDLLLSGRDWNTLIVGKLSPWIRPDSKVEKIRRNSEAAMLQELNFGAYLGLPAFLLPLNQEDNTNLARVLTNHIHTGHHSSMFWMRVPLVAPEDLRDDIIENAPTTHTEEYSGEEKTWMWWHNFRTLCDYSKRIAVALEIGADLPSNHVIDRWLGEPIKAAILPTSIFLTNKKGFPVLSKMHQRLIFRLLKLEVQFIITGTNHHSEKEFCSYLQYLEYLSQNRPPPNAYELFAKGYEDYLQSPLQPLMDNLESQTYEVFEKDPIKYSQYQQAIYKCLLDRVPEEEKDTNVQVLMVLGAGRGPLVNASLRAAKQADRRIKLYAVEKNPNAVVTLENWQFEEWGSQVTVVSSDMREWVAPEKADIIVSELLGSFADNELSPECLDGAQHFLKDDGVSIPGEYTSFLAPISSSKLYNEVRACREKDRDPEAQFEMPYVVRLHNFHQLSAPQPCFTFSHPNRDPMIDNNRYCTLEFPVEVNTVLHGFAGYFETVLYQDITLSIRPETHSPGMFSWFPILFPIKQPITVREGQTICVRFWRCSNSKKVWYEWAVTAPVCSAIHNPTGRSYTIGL
Sequence (Q9BQA1 whole entry partner): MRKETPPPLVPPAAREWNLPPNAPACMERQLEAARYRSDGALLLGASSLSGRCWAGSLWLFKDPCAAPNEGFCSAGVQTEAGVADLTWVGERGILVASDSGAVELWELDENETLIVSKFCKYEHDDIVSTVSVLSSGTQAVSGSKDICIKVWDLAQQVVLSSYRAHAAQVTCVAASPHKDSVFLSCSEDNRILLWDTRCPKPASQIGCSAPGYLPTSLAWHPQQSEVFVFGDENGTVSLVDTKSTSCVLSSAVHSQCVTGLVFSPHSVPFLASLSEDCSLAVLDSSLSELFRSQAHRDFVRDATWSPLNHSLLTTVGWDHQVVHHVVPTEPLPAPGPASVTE
Assay notes: Revised PRMT5 Biochemical Assay
Test settings: 1 μM histone H4 derived peptide substrate, 1 μM S-Adenosyl methionine, 4 hours at 37 degree Celsius, Transcreener EPIGEN fluorescence polarisation
pIC50: −log10 of the molar value.
Measurement label: pIC50

a = CC(C)Oc1ccccc1C(=O)NCC(O)CNC1Cc2ccccc2C1 (racemic) [Compound 74]
b = O=C(NCC(O)CNC1Cc2ccccc2C1)c1cnn(-c2cccnc2)c1 (stereo not drawn) [Compound 46]
c = C[C@@H]1COCCN1C(=O)c1ccc(C(=O)NC[C@@H](O)CNC2Cc3ccccc3C2)cc1 [Compound 37]
Query block: Rank the items in ascending order with respect to pIC50. Put the labels in the order asked and list them.
Result block: b, a, c
(b: 5.30, a: 5.50, c: 6.79)

---

Measured target: UniProtKB O14744
Assay notes: Revised PRMT5 Biochemical Assay
Test settings: 1 μM histone H4 derived peptide substrate, 1 μM S-Adenosyl methionine, 4 hours at 37 degree Celsius, Transcreener EPIGEN fluorescence polarisation
Protocol: Compounds of the invention may be tested for in vitro activity in the following assay: A histone H4 derived peptide is used as substrate (amino acid sequence: […]NH2). […] The 6 μL reactions are run in Greiner brand black 384-well low volume assay plates. […] To each reaction 2 μL detection mix were added, containing coupling enzymes, fluorescence polarisation tracer, and AMP antibody. […]
pIC50: −log10 of the molar value.
Measurement label: pIC50

Worked cases, answers included:
O=C(NC[C@@H](O)CNC1Cc2ccccc2C1)c1cccc2[nH]ncc12	4.81
CC(=O)N1CCC(Nc2cc(C(=O)NC[C@@H](O)CNC3Cc4ccccc4C3)ccn2)CC1	7.01
CCOc1cc(C(=O)N2C3CCC2COC3)ccc1C(=O)NC[C@@H](O)CNC1Cc2ccccc2C1	7.54

a = O=C(NC[C@@H](O)CNC1Cc2ccccc2C1)c1cccc2[nH]cnc12
b = COCc1ccccc1C(=O)NCC(O)CNC1Cc2ccccc2C1 (racemic)
c = CCOc1cc(C(=O)N2CCS(=O)(=O)CC2)ccc1C(=O)NC[C@@H](O)CNC1Cc2ccccc2C1
d = CC(=O)N1CC(Nc2cc(C(=O)NCC(O)CNC3Cc4ccccc4C3)ncn2)C1 (stereo not shown)
Query block: Order field: pIC50 | Direction: descending (largest first) Put the labels in the order asked and list them.
Result block: c, d, a, b
